Reference source: patent US11981658B2

target: EGFR wildtype (WT) (Homo sapiens, UniProt P00533); test: Biochemical EGFR kinase inhibition assay (Lance Ultra TR-FRET), wildtype; settings: IC50 WT (nM), 100 μM ATP
Sequence (P00533 25-1210): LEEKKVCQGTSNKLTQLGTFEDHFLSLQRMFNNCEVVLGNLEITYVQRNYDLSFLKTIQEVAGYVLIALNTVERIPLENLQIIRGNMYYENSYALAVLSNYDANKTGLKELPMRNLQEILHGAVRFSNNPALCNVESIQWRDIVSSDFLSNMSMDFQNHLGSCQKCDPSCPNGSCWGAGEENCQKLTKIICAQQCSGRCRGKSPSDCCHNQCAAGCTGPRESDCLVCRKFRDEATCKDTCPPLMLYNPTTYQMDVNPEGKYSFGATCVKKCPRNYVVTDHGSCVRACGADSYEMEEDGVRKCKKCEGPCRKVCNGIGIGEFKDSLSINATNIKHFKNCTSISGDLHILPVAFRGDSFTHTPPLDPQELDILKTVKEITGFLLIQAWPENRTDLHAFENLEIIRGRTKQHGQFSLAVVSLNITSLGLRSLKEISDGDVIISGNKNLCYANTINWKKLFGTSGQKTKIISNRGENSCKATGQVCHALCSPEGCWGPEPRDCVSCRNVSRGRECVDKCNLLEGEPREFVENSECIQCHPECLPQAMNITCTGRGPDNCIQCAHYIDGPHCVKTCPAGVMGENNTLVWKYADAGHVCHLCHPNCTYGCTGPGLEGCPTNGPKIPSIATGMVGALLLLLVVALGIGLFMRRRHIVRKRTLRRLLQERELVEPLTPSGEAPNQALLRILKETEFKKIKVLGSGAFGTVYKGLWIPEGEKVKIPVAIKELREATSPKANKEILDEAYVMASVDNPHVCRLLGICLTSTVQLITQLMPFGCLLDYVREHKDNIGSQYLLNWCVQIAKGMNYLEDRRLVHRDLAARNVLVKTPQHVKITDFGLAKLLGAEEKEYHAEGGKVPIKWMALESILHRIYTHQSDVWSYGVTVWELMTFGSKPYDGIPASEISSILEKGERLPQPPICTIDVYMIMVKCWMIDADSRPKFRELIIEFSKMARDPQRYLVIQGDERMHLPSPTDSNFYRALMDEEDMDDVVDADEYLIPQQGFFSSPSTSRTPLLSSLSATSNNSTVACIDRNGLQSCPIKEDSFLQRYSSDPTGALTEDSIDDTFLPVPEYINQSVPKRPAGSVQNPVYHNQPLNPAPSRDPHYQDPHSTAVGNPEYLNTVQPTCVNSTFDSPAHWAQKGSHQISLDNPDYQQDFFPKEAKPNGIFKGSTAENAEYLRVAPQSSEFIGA
Value type: IC50

Field: example entries. Status: answers known.
>>> df
                                   compound  test_result
0  Cn1cc(C#Cc2cnc(Nc3ccnc(-c4cnn(S(=O)(=O)C5CC5)c4)n3)cc2N2CC(C(C)(C)O)C2)cn1   > 10000 nM
1  O=S(=O)(C1CC1)n1cc(-c2nccc(Nc3cc(N[C@H]4CC[C@@H](O)CC4)c(C#CC4CCOCC4)cn3)n2)cn1      8010 nM
2  O=S(=O)(C1CC1)n1cc(-c2nccc(Nc3cc(N4CCC5(CCCO5)CC4)c(C#Cc4ncc(CN5CCOCC5)cn4)cn3)n2)cn1   > 10000 nM
3  CC1(CO)CCN(c2cc(Nc3ccnc(-c4cnn(S(=O)(=O)C5CC5)c4)n3)ncc2C#CC2CCN(S(=O)(=O)C3CC3)C2)CC1 (stereo not drawn)      9220 nM
4  C[C@]1(O)CC[C@@H](Nc2cc(Nc3ccnc(-c4cnn(S(=O)(=O)C5CC5)c4)n3)ncc2C#Cc2cnn(C(F)(F)F)c2)CC1   > 10000 nM

# ---- query compound ----
Challenge: # lookup: IC50 of `O=S(=O)(C1CC1)n1cc(-c2nccc(Nc3cc(N4CCC5(CCO5)CC4)c(C#Cc4ncc(CN5CCOCC5)cn4)cn3)n2)cn1`
Response given: > 10000 nM

* * *

A collection of compounds and their measured log10(IC50)
target: EGFR Del19/C797S (Homo sapiens, UniProt P00533, C797S/DEL746-750); test: Biochemical EGFR kinase inhibition assay (Lance Ultra TR-FRET), double mutant del19/C797S; conditions: Km ATP; read-out: IC50 Del19/C797S (nM), Km ATP
Sequence (P00533 with tags, fused parts or gaps DEL746-750/C797S): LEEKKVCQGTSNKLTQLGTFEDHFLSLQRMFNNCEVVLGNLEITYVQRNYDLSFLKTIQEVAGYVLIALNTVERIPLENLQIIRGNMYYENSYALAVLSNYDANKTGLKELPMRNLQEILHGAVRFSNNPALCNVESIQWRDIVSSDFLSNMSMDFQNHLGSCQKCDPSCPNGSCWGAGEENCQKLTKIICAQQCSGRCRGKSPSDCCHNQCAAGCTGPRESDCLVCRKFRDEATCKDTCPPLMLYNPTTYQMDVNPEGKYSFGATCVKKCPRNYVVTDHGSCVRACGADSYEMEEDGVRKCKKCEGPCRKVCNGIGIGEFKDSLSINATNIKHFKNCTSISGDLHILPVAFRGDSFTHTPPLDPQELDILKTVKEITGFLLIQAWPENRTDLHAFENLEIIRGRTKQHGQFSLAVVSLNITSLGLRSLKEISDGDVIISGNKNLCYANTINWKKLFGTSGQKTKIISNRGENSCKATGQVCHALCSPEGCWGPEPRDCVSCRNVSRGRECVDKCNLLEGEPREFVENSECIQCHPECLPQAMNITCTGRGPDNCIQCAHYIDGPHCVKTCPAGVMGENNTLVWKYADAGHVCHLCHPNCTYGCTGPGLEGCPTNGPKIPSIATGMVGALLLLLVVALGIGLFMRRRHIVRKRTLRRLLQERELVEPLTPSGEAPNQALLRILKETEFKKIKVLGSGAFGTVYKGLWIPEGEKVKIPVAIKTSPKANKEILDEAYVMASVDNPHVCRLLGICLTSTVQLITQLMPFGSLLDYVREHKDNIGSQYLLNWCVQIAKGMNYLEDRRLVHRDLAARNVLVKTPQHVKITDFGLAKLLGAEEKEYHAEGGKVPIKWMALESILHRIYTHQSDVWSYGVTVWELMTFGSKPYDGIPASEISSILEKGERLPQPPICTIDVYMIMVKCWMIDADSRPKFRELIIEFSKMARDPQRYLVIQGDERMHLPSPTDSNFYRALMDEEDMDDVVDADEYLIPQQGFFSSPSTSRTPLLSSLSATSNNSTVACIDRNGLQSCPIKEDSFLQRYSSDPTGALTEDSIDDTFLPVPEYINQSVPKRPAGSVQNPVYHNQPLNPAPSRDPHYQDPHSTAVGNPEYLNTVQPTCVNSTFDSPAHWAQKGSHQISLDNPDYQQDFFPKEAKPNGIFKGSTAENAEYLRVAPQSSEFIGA
Please be aware that the numbers have been log10-transformed from IC50 in nM.

                                   compound                             system_tested  test_result
0  CC1(CO)CCN(c2cc(Nc3ccnc(-c4cnn(S(=O)(=O)C5CC5)c4)n3)ncc2C#CC2CCCO2)CC1 (stereo not shown)  EGFR Del19/C797S (Homo sapiens, UniProt P00533, C797S/DEL746-750)        -0.30
1  O=S(=O)(C1CC1)n1cc(-c2nccc(Nc3cc(N[C@H]4CC[C@@H](O)CC4)c(C#Cc4cnn(CC(F)(F)F)c4)cn3)n2)cn1  EGFR Del19/C797S (Homo sapiens, UniProt P00533, C797S/DEL746-750)         0.58
2  CN(C)CCC1CCN(c2cc(Nc3ccnc(-c4cnn(S(=O)(=O)C5CC5)c4)n3)ncc2C#CC2(C)CC2)CC1  EGFR Del19/C797S (Homo sapiens, UniProt P00533, C797S/DEL746-750)        -0.22
3  CC1(CO)CCN(c2cc(Nc3ccnc(-c4cnn(S(=O)(=O)C5CC5)c4)n3)ncc2C#CC2(O)CCC2)CC1  EGFR Del19/C797S (Homo sapiens, UniProt P00533, C797S/DEL746-750)         0.69
4  O=S(=O)(C1CC1)n1cc(-c2nccc(Nc3cc(N4CCC(F)(CO)CC4)c(C#Cc4cnn(CC(F)(F)F)c4)cn3)n2)cn1  EGFR Del19/C797S (Homo sapiens, UniProt P00533, C797S/DEL746-750)         0.36

Challenge: Recall the recorded log10(IC50) for `CN(C)CCC1CCN(c2cc(Nc3ccnc(-c4cnn(S(=O)(=O)C5CC5)c4)n3)ncc2C#Cc2cnn(C(F)(F)F)c2)CC1` with EGFR Del19/C797S (Homo sapiens, UniProt P00533, C797S/DEL746-750) and state it.
Response given: 0.32

Challenge: Try `CC1(O)CCN(c2cc(Nc3ccnc(-c4cnn(S(=O)(=O)C5CC5)c4)n3)ncc2C#Cc2ncc(CN3CCOCC3)cn2)CC1` next.
Response given: 0.15

* * *

biological target: EGFR wildtype (WT) (Homo sapiens, UniProt P00533); experiment: Biochemical EGFR kinase inhibition assay (Lance Ultra TR-FRET), wildtype; settings: IC50 WT (nM), 100 μM ATP
Value type: log10 of IC50 (log10 of the value in nM)
Base-10 log of IC50, unit nM.

In [3]: df
Out[3]:
                                   compound  test_result
0  CC1(CO)CCN(c2cc(Nc3ccnc(-c4cnn(S(=O)(=O)C5CC5)c4)n3)ncc2C#CC2CCOCC2)CC1         3.59
1  CC1(CO)CCN(c2cc(Nc3ccnc(-c4cnn(S(=O)(=O)C5CC5)c4)n3)ncc2C#Cc2ccc(CN3CCOCC3)s2)CC1         3.55
2  CC1(CO)CCN(c2cc(Nc3ccnc(-c4cnn(S(=O)(=O)C5CC5)c4)n3)ncc2C#CC2CCN(S(C)(=O)=O)CC2)CC1         3.72
3  CN(C)CCCn1cc(C#Cc2cnc(Nc3ccnc(-c4cnn(S(=O)(=O)C5CC5)c4)n3)cc2N2CCC(F)(CO)CC2)cn1         2.89
4  CC1(CO)CCN(c2cc(Nc3ccnc(-c4cnn(S(=O)(=O)C5CC5)c4)n3)ncc2C#Cc2cnn(C(F)F)c2)CC1         3.18

Challenge: Requested field: log10 of IC50. Item: `COC1CCN(c2cc(Nc3ccnc(-c4cnn(S(=O)(=O)C5CC5)c4)n3)ncc2C#Cc2cnn(C3CCN(C(C)=O)CC3)c2)CC1`
Response given: 3.88

* * *

molecular target: EGFR L858R/T790M/C797S (Homo sapiens, UniProt P00533, C797S/L858R/T790M); assay: Biochemical EGFR kinase inhibition assay (Lance Ultra TR-FRET), triple mutant L858R/T790M/C797S; details: ATP at Km; read-out: IC50 L858R/T790M/C797S (nM), Km ATP
Sequence (P00533 25-1210 T790M/C797S/L858R): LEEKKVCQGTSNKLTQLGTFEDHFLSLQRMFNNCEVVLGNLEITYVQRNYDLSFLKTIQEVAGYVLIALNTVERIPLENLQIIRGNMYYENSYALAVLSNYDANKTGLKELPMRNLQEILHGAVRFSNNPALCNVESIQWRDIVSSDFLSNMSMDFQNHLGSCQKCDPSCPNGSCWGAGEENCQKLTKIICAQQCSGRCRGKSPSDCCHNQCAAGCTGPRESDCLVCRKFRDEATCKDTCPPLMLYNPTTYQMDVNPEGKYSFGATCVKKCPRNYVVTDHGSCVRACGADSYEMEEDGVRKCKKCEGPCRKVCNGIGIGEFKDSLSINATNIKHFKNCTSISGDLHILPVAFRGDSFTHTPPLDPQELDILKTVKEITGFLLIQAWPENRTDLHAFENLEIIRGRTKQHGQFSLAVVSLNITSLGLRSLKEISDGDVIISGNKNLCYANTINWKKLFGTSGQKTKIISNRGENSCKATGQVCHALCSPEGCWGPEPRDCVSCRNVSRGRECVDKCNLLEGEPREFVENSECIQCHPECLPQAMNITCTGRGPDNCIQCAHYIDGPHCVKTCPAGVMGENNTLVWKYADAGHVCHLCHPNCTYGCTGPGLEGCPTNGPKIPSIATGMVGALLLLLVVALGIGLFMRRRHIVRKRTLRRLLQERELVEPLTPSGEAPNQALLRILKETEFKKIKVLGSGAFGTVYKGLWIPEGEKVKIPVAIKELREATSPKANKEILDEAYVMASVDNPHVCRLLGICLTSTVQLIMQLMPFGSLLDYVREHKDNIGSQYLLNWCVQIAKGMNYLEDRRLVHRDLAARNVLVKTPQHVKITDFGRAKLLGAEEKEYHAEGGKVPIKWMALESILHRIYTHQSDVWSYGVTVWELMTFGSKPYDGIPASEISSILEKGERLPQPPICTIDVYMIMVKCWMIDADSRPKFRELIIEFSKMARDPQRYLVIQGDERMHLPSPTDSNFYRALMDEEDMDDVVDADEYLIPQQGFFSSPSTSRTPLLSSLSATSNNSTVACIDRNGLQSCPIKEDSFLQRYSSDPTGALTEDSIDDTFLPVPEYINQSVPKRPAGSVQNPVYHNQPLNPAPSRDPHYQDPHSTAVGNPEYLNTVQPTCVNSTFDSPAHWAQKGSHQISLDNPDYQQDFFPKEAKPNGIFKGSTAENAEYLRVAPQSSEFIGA
Quick list: log10(IC50) per entry.
Heads up, the numbers here are log10 of IC50 in nM units.

>>> df
                                   compound   value_type  test_result
0  CN(C)Cc1ccc(C#Cc2cnc(Nc3ccnc(-c4cnn(S(=O)(=O)C5CC5)c4)n3)cc2N2CCC(C)(CO)CC2)cc1  log10(IC50)        -1.00
1  CC1(CO)CCN(c2cc(Nc3ccnc(-c4cnn(S(=O)(=O)C5CC5)c4)n3)ncc2C#Cc2cnc(C(F)(F)F)s2)CC1  log10(IC50)         0.38
2  CC1(CO)CCN(c2cc(Nc3ccnc(-c4cnn(S(=O)(=O)C5CC5)c4)n3)ncc2C#Cc2ccc(CN3CCOCC3)cn2)CC1  log10(IC50)        -0.70
3  CN1CCN(Cc2ccc(C#Cc3cnc(Nc4ccnc(-c5cnn(S(=O)(=O)C6CC6)c5)n4)cc3N3CCC(C)(CO)CC3)cc2)CC1  log10(IC50)        -0.70
4  C#Cc1cnc(Nc2ccnc(-c3cnn(S(=O)(=O)C4CC4)c3)n2)cc1N1CCC(C)(CO)CC1  log10(IC50)        -1.00
5  CN(C)C[C@H]1CC[C@@H](Nc2cc(Nc3ccnc(-c4cnn(S(=O)(=O)C5CC5)c4)n3)ncc2C#Cc2cnn(C3CC3)c2)CC1  log10(IC50)        -1.00
6  CC1(CO)CCN(c2cc(Nc3ccnc(-c4cnn(CC(F)F)c4)n3)ncc2C#Cc2cnn(C(F)(F)F)c2)CC1  log10(IC50)        -0.10
7  CN(C)Cc1cccc(C#Cc2cnc(Nc3ccnc(-c4cnn(S(=O)(=O)C5CC5)c4)n3)cc2N2CCC(C)(CO)CC2)c1  log10(IC50)        -1.00

Challenge: So what log10(IC50) did `CC1(CO)CCN(c2cc(Nc3ccnc(-c4cnn(S(=O)(=O)C5CC5)c4)n3)ncc2C#Cc2csc(CN3CCOCC3)n2)CC1` get with EGFR L858R/T790M/C797S (Homo sapiens, UniProt P00533, C797S/L858R/T790M)?
Response given: -0.22

* * *

Recorded measurements of IC50, one per entry
biological target: EGFR L858R/T790M/C797S (Homo sapiens, UniProt P00533, C797S/L858R/T790M); test: Biochemical EGFR kinase inhibition assay (Lance Ultra TR-FRET), triple mutant L858R/T790M/C797S; details: IC50 L858R/T790M/C797S (nM), 100 μM ATP
Express the result in nM but write the number alone.

Example molecules with recorded IC50:
                                   molecule  test_result
0  O=S(=O)(C1CC1)n1cc(-c2nccc(Nc3cc(N[C@H]4CC[C@@H](O)CC4)c(C#Cc4ncc(CN5CCOCC5)cn4)cn3)n2)cn1 [Example 194]          0.7
1  CN(C)CCn1cc(C#Cc2cnc(Nc3ccnc(-c4cnn(S(=O)(=O)C5CC5)c4)n3)cc2N2CCC(F)(CO)CC2)cn1 [Example 117]          0.3

Proceeding to the next molecule to report its IC50.
Challenge: # IC50 lookup, item CC1(CO)CCN(c2cc(Nc3ccnc(-c4cnn(S(=O)(=O)C5CC5)c4)n3)ncc2C#CC2CCN(S(C)(=O)=O)C2)CC1 (stereo not drawn) [Example 401]
Response given: 0.5
